# System: Candida tropicalis
# Experimental Details: Antifungal activity against Candida tropicalis CECT 11901 at 100 ug/mL after 24 hrs by AFSTEUCAST assay
# Type: functional, organism-based
Activity calls are given as the source filed them. The rule behind the calls is not given here.
Outcomes you can answer with include only these: Y (active), N (inactive)

Example entries and their recorded answers appear below.
C=C1CC[C@H]2C(C)(C)CCC[C@]2(C)[C@H]1C/C=C(\C=O)CC=O (mixture of isomers) [LABDADIENEDIAL]    Y
C=C1CC[C@H]2C(C)(C)CCC[C@]2(C)[C@H]1C/C=C(/CC(=O)O)C(=O)O    N
C=C1CC[C@H]2C(C)(C)CCC[C@]2(C)[C@H]1C/C=C(/CC(=O)OC)C(=O)OC    N
CON(C)C(=O)C[C@H]1[C@@]2(C)CCCC(C)(C)[C@@H]2CC[C@]1(C)O [WEINREB'S AMIDE]    N

Recorded test outcome, item C=C1CCC2C(C)(C)CCC[C@]2(C)[C@H]1CC=O (some centres not stated)
N

Recorded test outcome, item `C=C1CC[C@H]2C(C)(C)CCC[C@]2(C)[C@H]1CC(=O)N(C)OC`
N

Recorded test outcome, item `C=C1CC[C@H]2C(C)(C)CCC[C@]2(C)[C@H]1C/C=C(\CO)CCO`
N
